Molecular target: bovine cardiac myofibrils (full-length cardiac myosin ATPase in the native sarcomere) (Bos taurus (Bovine), UniProt Q9BE39)
Sequence (Q9BE39 whole entry): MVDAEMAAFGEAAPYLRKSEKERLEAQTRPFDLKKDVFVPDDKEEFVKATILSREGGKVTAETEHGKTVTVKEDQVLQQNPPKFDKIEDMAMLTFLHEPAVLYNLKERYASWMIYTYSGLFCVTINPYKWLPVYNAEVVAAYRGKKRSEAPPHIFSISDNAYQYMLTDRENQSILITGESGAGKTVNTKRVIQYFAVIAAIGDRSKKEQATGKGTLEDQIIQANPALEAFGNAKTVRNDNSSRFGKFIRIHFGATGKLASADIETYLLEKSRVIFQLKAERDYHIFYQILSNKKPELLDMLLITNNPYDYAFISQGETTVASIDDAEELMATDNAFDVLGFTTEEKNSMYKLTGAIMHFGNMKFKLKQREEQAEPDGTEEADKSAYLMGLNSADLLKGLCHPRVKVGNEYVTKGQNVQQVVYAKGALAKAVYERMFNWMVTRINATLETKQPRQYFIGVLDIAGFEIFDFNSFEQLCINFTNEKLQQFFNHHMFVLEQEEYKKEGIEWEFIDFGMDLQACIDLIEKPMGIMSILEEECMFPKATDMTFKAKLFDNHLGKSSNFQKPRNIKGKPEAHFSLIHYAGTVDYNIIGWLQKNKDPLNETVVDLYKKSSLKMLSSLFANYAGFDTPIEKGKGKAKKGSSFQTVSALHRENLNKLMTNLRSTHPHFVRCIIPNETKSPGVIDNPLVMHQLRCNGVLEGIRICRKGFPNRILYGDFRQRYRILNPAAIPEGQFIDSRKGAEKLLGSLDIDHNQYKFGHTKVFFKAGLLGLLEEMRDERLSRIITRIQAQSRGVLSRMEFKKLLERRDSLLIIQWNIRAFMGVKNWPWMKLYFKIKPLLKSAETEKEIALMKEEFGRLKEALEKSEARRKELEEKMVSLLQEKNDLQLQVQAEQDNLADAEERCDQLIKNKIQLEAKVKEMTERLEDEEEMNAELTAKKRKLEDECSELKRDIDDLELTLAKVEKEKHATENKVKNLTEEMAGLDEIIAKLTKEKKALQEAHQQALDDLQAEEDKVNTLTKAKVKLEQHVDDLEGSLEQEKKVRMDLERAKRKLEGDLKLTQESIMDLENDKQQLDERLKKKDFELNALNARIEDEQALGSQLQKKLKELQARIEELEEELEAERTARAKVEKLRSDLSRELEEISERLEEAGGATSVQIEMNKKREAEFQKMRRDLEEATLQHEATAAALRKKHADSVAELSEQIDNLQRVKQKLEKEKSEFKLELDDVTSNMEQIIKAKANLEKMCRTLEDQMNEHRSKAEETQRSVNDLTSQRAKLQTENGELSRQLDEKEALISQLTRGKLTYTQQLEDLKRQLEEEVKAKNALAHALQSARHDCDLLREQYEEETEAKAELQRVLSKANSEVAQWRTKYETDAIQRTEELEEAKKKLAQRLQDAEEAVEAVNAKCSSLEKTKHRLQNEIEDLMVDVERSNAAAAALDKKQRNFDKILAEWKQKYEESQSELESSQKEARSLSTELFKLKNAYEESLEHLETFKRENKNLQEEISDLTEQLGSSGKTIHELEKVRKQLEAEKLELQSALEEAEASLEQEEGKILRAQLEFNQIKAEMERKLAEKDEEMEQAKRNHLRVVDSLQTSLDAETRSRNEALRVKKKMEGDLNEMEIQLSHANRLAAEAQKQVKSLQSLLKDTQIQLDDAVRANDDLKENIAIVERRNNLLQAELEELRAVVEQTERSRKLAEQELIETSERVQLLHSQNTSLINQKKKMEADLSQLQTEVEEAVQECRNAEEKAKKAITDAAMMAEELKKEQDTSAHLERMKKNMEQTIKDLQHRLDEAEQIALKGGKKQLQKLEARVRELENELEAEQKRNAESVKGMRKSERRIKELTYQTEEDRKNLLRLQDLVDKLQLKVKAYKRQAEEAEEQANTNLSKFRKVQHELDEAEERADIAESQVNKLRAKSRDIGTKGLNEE
Sequence (P85100 whole entry partner): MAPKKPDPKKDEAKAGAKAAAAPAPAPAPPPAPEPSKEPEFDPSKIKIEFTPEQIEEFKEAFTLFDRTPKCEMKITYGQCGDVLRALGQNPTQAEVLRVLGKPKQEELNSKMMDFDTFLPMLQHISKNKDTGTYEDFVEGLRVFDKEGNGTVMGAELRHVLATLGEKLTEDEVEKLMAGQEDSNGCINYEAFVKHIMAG
Sequence (Q3SZE5 whole entry partner): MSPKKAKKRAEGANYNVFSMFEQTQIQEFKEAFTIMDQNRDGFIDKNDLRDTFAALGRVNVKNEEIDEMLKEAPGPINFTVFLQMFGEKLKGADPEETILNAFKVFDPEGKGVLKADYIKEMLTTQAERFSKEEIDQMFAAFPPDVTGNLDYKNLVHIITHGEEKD
Test: Skinned bovine cardiac myofibril ATPase assay (PK/LDH-coupled)
Type: biochemical
Settings: Ca2+ activating to 75% of maximal rate, concentration giving 15% inhibition
MEASURED ENDPOINT: CDMF75 IC15 (nM)
Answers are plain numbers, in nM.

Look over these answered cases.
- Cn1cnnc1C(=O)N[C@@H]1CCc2cc(-c3noc(C(F)F)n3)ccc21: 4600
- CCc1nc(-c2ccc3c(c2)CC[C@H]3NC(=O)c2coc(C)n2)no1: 1400
- Cc1conc1C(=O)NC1CCc2cc(-c3noc(C(F)F)n3)ccc21 (stereo not shown): 1700
- CCc1nc(-c2ccc3c(c2)CC[C@H]3NC(=O)OCC2CN(C(=O)OC)C2)no1: 23700

Hi team, please reply with CDMF75 IC15 for each item in this list.
1. Cc1nc(-c2ccc3c(c2)CCC3NC(=O)Nc2cccnc2)no1 (stereo not shown)
2. COCc1nc(-c2ccc3c(c2)CC[C@H]3NC(=O)c2nnc(C)o2)no1 [Compound 697]
3. Cc1cc(C(=O)N[C@@H]2CCc3cc(-c4cc(C)on4)ccc32)ccn1
4. CCc1nc(-c2ccc3c(c2)CC[C@H]3NC(=O)c2ncco2)no1
5. Cc1cnnc(-c2ccc3c(c2)CC[C@H]3NC(=O)c2ccnn2C)c1
6. Cn1ncc(C(=O)NC2CCc3cc(-c4noc(C(F)F)n4)ccc32)n1 (stereo not shown)
7. CCc1nc(-c2ccc3c(c2)CC[C@H]3NC(=O)c2cc(Cl)no2)no1

[1500, 900, 800, 500, 3400, 1900, 200]

----------
Task for the reader: assign each of the following compounds its reported CDMF75 IC15.
Biological target: bovine cardiac myofibrils (full-length cardiac myosin ATPase in the native sarcomere) (Bos taurus (Bovine))
Assay: Skinned bovine cardiac myofibril ATPase assay (PK/LDH-coupled)
Type: biochemical
Conditions: Ca2+ activating to 75% of maximal rate, concentration giving 15% inhibition
Protocol: To evaluate the effect of compounds on the ATPase activity of full-length cardiac myosin in the context of the native sarcomere, skinned myofibril assays were performed. […] Small molecule agents were assessed for their ability to inhibit the steady-state ATPase activity of bovine cardiac myofibrils using pyruvate kinase and lactate dehydrogenase (PK/LDH)-coupled enzyme system. This assay regenerates myosin-produced ADP into ATP by oxidizing NADH, producing an absorbance change at 340 nm. […]
Answers are plain numbers, in µM.

Below, each entry is followed by its recorded CDMF75 IC15 result.
- [2H]C([2H])([2H])c1nc(-c2ccc3c(c2)CC[C@H]3NC(=O)c2cnn(C)c2)no1: 1.6
- O=C(N[C@@H]1CCc2cc(-c3noc(C4CC4)n3)ccc21)c1cn[nH]c1: 0.6

Respectfully, I request CDMF75 IC15 for each entry included below.
1. Cc1nc(C(=O)NC2CCc3cc(-c4noc(C)n4)ccc32)no1 (centres unmarked)
2. Cc1cc(C(=O)NC2CCc3cc(-c4nc(C)co4)ccc32)ccn1 (centres unmarked)
3. CCc1nc(-c2ccc3c(c2)CC[C@H]3NC(=O)[C@H]2COCCN2)no1

1. 3.7
2. 39.2
3. 13.4

----------
Molecular target: bovine cardiac myofibrils (full-length cardiac myosin ATPase in the native sarcomere) (Bos taurus (Bovine), UniProt Q9BE39)
Test: Skinned bovine cardiac myofibril ATPase assay (PK/LDH-coupled)
Type: biochemical
Conditions: Ca2+ activating to 75% of maximal rate, concentration giving 15% inhibition
Would you kindly list CDMF75 IC15 for each of these compounds?

Answered examples (3):
- COCc1nc(-c2ccc3c(c2)CC[C@H]3NC(=O)c2cccc([C@H](C)O)c2)no1: 0.8 µM
- Cc1nc(-c2ccc3c(c2)CCC3NC(=O)c2cnn3c2CCC3)no1 (stereo not drawn): 2.8 µM
- Cn1nnc(C(=O)N[C@@H]2COc3cc(-c4noc(C(F)F)n4)ccc32)n1: 2.0 µM

Batch: CDMF75 IC15 for all items listed.
1. CCc1nc(-c2ccc3c(c2)CC[C@H]3NC(=O)c2cnn(CCCO)c2C)no1
2. O=C(NC1CCc2cc(-c3noc(C(F)F)n3)ccc21)c1ccnc(O)c1 (stereo not drawn)
3. CCc1nc(-c2ccc3c(c2)CC[C@H]3NC(=O)c2c[nH]nc2C)no1

1. 0.7 µM
2. 1.9 µM
3. 0.4 µM

// each listed compound needs a value for CDMF75 IC15
1. CCc1nc(-c2ccc3c(c2)CC[C@H]3NC(=O)c2ccn(C)c(=O)c2)no1
2. CCc1nc(-c2ccc3c(c2)OC[C@H]3NC(=O)N2CC[C@H](O)C2)no1
3. Cn1nccc1C(=O)N[C@@H]1COc2cc(-c3noc(C(F)F)n3)ccc21
4. Cc1nc(-c2ccc3c(c2)CC[C@H]3NC(=O)c2nncn2C)no1

1. 2.0 µM
2. 5.4 µM
3. 0.3 µM
4. 8.2 µM

Dear colleague, could you send me CDMF75 IC15 for each of the items below? Thanks.
1. [2H]C([2H])([2H])c1nc(-c2ccc3c(c2)CC[C@H]3NC(C)=O)no1
2. Cn1cc(C(=O)N[C@@H]2CCc3cc(-c4noc(CCO)n4)ccc32)cn1

1: 2.8 µM; 2: 13.7 µM
